Answer each item with its documented Population Fragmented Nuclei (%).
System: HEK-293T
Experiment: Multiplex assay against HEK293T
Format: toxicity, cell-based
Settings: human, 24 h, 1 µM, compound concentration 1 uM, replicate 1
Numbers only, in %.

// solved cases for Population Fragmented Nuclei (%) follow
[
  {
    "molecule": "Cl.O=C(O)c1cc(-c2ccc(C3CCNCC3)cc2)c2ccc(-c3ccc(C(F)(F)F)cc3)cc2c1",
    "measure.name": "Population Fragmented Nuclei (%)",
    "units.text": "%",
    "recorded.number": 14
  },
  {
    "molecule": "O=c1cc(N2CCOCC2)oc2c(-c3cccc4c3sc3ccccc34)cccc12",
    "measure.name": "Population Fragmented Nuclei (%)",
    "units.text": "%",
    "recorded.number": 9
  },
  {
    "molecule": "CC(C)CC(=O)Nc1[nH]nc2c1CN(C(=O)C1CCN(C)CC1)C2(C)C [PHA-793887]",
    "measure.name": "Population Fragmented Nuclei (%)",
    "units.text": "%",
    "recorded.number": 9
  },
  {
    "molecule": "C[C@]12CC[C@@H]3c4ccc(O)cc4CC[C@H]3[C@@H]1CC[C@@H]2O [ESTRADIOL]",
    "measure.name": "Population Fragmented Nuclei (%)",
    "units.text": "%",
    "recorded.number": 12
  }
]

// batch mode: one Population Fragmented Nuclei (%) value per listed entry
1. COC(=O)C1=C(C)NC(C)=C(C(=O)OCCCN2CCC(c3ccccc3)(c3ccccc3)CC2)[C@H]1c1cccc([N+](=O)[O-])c1 [NIGULDIPINE]
2. Cc1nc(N2CC[C@H](O)C2)ncc1-c1cc(C(F)(F)F)cc2[nH]ncc12
3. O=C(c1cc2c(cc1F)OC(c1ccc(F)cc1)(c1ccc(Cl)cc1Cl)O2)N1CCOCC1 (stereo not drawn)
4. Cc1c[nH]c2nccc(Oc3c(F)cc(Nc4cc(Cl)nc(N)n4)cc3F)c12 [BAY-549]

a:
1. 7
2. 7
3. 15
4. 14

* * *

Test system: HEK-293T
Test: Multiplex assay against HEK293T;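 as to Population Tubulin-Different-Phenotype (%): share of the cells with healthy nuclei that show this phenotype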
Type: toxicity, cell-based
Conditions: human, 12 h, 1 µM, compound concentration 1 uM, replicate 2
measure.name: Population Tubulin-Different-Phenotype (%)
One number for each entry, in %.

Some compounds with known Population Tubulin-Different-Phenotype (%) results, for comparison:
[
  {
    "compound": "O=C(c1cc2c(cc1F)OC(c1ccc(F)cc1)(c1ccc(Cl)cc1Cl)O2)N1CCOCC1 (stereo unspecified)",
    "units.text": "%",
    "recorded.number": 23
  },
  {
    "compound": "O=c1[nH]c2ccccc2n1C1CCN(Cc2ccc(-c3[nH]c4cc5ncnc5cc4nc3-c3ccccc3)cc2)CC1",
    "units.text": "%",
    "recorded.number": 43
  },
  {
    "compound": "CCOC(=O)Nc1cc(-c2ccc(C)c(NS(C)(=O)=O)c2)nn2c(C)nnc12",
    "units.text": "%",
    "recorded.number": 0
  },
  {
    "compound": "Cc1ccc2c(c1)c1c(n2CCc2ccc(C)nc2)CCN(C)C1 [LATREPIRDINE]",
    "units.text": "%",
    "recorded.number": 39
  }
]

For each of the compounds below, state Population Tubulin-Different-Phenotype (%).
1. CNC(=O)Nc1ccc2c(c1)[C@@]1(CC2)OC(=O)N(CC(=O)N(Cc2ccc(F)cc2)[C@@H](C)C(F)(F)F)C1=O
2. Cc1nc(N2CC[C@H](O)C2)ncc1-c1cc(C(F)(F)F)cc2[nH]ncc12
3. CN1CCN(Cc2ccc(Nc3ncc(Cl)c(Nc4ccccc4S(=O)(=O)N(C)C)n3)cc2)CC1
4. COc1ccc(-c2ccc3ncc4c(c3c2)n(-c2ccc(N3CCNCC3)c(C(F)(F)F)c2)c(=O)n4C)cn1.O=C(O)/C=C\C(=O)O

a:
1: 88; 2: 9; 3: 14; 4: 90

Please supply Population Tubulin-Different-Phenotype (%) for each of the following items, keeping them in order.
1. CC(C)Oc1ccccc1C(=O)Nc1ccccc1C(=O)Nc1cccc(S(=O)(=O)C(F)(F)F)c1
2. CCc1ccc(OCc2ccccc2C(=O)Nc2ccc3nc(C)cc(N)c3c2)cc1.Cl
3. CCCSc1nc(N[C@@H]2C[C@H]2c2ccc(F)c(F)c2)c2nnn([C@@H]3C[C@H](OCCO)[C@@H](O)[C@H]3O)c2n1
4. CC(C)CC(=O)Nc1[nH]nc2c1CN(C(=O)C1CCN(C)CC1)C2(C)C
5. C[C@]12CC[C@@H]3c4ccc(O)cc4CC[C@H]3[C@@H]1CC[C@@H]2O

a:
76
73
27
4
11
